Just for reference, patent EP4696329A1 is where these values come from.

# Target System: human ROR1 protein (recombinant ROR1 antigen, Kactus Biosystems) (human, UniProt Q01973 30-406, limits assumed)
# Sequence (Q01973 30-406 limits assumed): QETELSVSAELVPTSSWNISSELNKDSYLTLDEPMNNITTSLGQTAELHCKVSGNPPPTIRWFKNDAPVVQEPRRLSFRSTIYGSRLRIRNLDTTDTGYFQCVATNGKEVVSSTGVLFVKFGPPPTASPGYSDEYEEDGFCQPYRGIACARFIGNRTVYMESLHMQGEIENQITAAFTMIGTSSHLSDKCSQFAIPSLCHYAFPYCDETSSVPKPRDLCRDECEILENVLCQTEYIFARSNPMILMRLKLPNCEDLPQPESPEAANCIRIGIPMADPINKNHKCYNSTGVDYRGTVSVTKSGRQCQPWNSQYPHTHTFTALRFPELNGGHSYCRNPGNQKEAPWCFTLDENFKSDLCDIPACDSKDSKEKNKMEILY
# Assay Explanation: binding to ROR1 (column 'Binding to ROR1'; method not described)
I'd be grateful if you could share measured EC50 for these entries.
Answers are plain numbers, in µg/mL.

AM3-ZH4 (antibody, human IgG1, kappa, V domains shown) VH: EVQLVESGGGLVQPGGSLRLSCAASGFTFSSYAMSWVRQAPGKGLEWVSSISTGASAYFPDSVKGRFTISRDNAKNSLYLQMNSLRAEDTAVYYCARYTTSTWYHDVWGQGTTVTVSS VL: DIQMTQSPSAMSASVGDRVTITCKASQDIYSYLSWFQQKPGKVPKTLIYRANRLVRGVPSRFSGSGSGQEYTLTISSLQPEDMATYYCLQYDEFPYTFGQGTKLEIKR	0.0161

Give one value of EC50 per listed binder.
1. H10-hVH4-hVL4 (antibody, human IgG1, kappa, V domains shown, also called H10-VH4VL4) VH: EVQLVESGGGLVQPGGSLRLSCAASGFTFSSYAMSWVRQAPGKGLEWVSSISTGASAYFPDSVKGRFTISRDNAKNSLYLQMNSLRAEDTAVYYCARITTSTWYFDVWGQGTTVTVSS VL: DIQMTQSPSAMSASVGDRVTITCKASQDINSYLSWFQQKPGKVPKTLIYRANRLVDGVPSRFSGSGSGQEYTLTISSLQPEDMATYYCLQYDEFPYTFGQGTKLEIKR
2. AM3-ZH7 (antibody, human IgG1, kappa, V domains shown) VH: EVQLVESGGGLVQPGGSLRLSCAASGFTFSSYAMSWVRQAPGKGLEWVSSISTGASAYFPDSVKGRFTISRDNAKNSLYLQMNSLRAEDTAVYYCARITTSTWYMDVWGQGTTVTVSS VL: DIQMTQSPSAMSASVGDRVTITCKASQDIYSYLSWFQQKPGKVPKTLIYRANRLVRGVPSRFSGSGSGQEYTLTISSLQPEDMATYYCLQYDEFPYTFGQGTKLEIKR
3. AM3-ZH5 (antibody, human IgG1, kappa, V domains shown) VH: EVQLVESGGGLVQPGGSLRLSCAASGFTFSSYAMSWVRQAPGKGLEWVSSISTGASAYFPDSVKGRFTISRDNAKNSLYLQMNSLRAEDTAVYYCARITTSTWYMDVWGQGTTVTVSS VL: DIQMTQSPSAMSASVGDRVTITCKASQDIFSYLSWFQQKPGKVPKTLIYRANRLVSGVPSRFSGSGSGQEYTLTISSLQPEDMATYYCLQYDEFPYTFGQGTKLEIKR
4. AM3-ZH3 (antibody, human IgG1, kappa, V domains shown, human IgG1 / kappa) VH: EVQLVESGGGLVQPGGSLRLSCAASGFTFSSYPMSWVRQAPGKGLEWVSSISTGASAYFPDSVKGRFTISRDNAKNSLYLQMNSLRAEDTAVYYCARITTSTWYMDVWGQGTTVTVSS VL: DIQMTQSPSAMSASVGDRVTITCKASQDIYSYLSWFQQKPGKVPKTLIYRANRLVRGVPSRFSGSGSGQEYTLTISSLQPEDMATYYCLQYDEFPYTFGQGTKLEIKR

1: 0.0144; 2: 0.0115; 3: 0.0124; 4: 0.0123

Take each entry in turn and give its EC50.
1. AM3-ZH6 (antibody, human IgG1, kappa, V domains shown) VH: EVQLVESGGGLVQPGGSLRLSCAASGFTFSSYAMSWVRQAPGKGLEWVSSISTGASAYFPDSVKGRFTISRDNAKNSLYLQMNSLRAEDTAVYYCARITTSTWYMDVWGQGTTVTVSS VL: DIQMTQSPSAMSASVGDRVTITCKASQDIYSYLSWFQQKPGKVPKTLIYRANRLVGGVPSRFSGSGSGQEYTLTISSLQPEDMATYYCLQYDEFPYTFGQGTKLEIKR
2. AM3-ZH1 (antibody, human IgG1, kappa, V domains shown) VH: EVQLVESGGGLVQPGGSLRLSCAASGFTFSSYPMSWVRQAPGKGLEWVSSISTGASAYFPDSVKGRFTISRDNAKNSLYLQMNSLRAEDTAVYYCARYTTSTWYFDVWGQGTTVTVSS VL: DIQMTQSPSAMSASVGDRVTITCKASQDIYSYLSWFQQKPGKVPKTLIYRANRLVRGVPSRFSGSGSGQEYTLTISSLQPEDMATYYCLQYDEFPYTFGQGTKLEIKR

1: 0.012; 2: 0.0127
